# pKd listing for each entry below
Molecular target: T1, TIAM2, Q8IVF5
T1 sequence (Q8IVF5 885-986, limits assumed, looked up): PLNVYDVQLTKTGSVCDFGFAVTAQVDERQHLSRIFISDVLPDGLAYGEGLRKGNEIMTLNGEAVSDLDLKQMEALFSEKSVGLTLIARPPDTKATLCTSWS
Assay: holdup assay
Design: key: below the threshold = too weak to quantify, mostly under pKd 3.1 to 4
Conditions: plain residues with an end cap or a label only (N-terminal biotin on a linker: ado-ado)
Just the number, please.

MLPANYVEAI [NEB, P20929] = 3.96
FLVTEFNVML [DFNB31, Q9P202] = 3.59
PSDSVGKDVF [EGLN1, Q9GZT9] = 4.05
GVHSNDHSVV [LPAR1, Q92633] = 3.94
KPDKQEEFYA [SDC3, O75056] = 4.04

get_value(item= DLLGGGSDSI [TNRC6B, Q9UPQ9] , readout=pKd) returns 3.97

Data point: PSVYSRSQYV [CLDN8, P56748] ; pKd = 4.1

Entry PLATCDETSI [SEMA4F, O95754] — recorded pKd = 4.08

Looking up ADEMICITTL [CACNA1D, Q01668] , I see its pKd listed as 4.19

Data point: PALKNGQYWV [CSPG4, Q6UVK1] ; pKd = 4.83
